Data provenance is patent US5466809A.

Exercise: for every item that follows, state its recorded IC50.
- Test system: N-linked oligosaccharide processing
- assayDetails: L-PHA lectin sensitivity assay for inhibition of N-linked oligosaccharide processing
- Assay type: cell-based
- condition: L-PHA assay; 3H-thymidine incorporation; read-out: D50 Values (Inhibition), L-PHA assay
Numbers only, in µg/mL.

Some molecules with known IC50 results, for comparison:
[[record]]
molecule = "CCCCCCCC(=O)O[C@@H]1CN2CCC[C@@H](O)[C@@H]2[C@@H]1O [Compound 6]"
parametermeasured = "IC50"
measurement = 0.066

[[record]]
molecule = "CCCC(=O)O[C@@H]1CN2CCC[C@@H](O)[C@@H]2[C@@H]1O [Compound 3]"
parametermeasured = "IC50"
measurement = 0.066


Turning now to a further molecule:
Query (molecule): O=C(O[C@@H]1CN2CCC[C@@H](O)[C@@H]2[C@@H]1O)c1ccc([N+](=O)[O-])cc1 [Compound 42] ; field requested: IC50 0.066
